Experiment Notes: Partition coefficient, log D at pH 7.2 to 7.4 by HPLC Supelcosil
Assay type: physicochemical
Condition Notes: octanol/water
Observable: chromatographic logD

                           structure_string  numeric_readout
0  N#Cc1ccc2[nH]cc([C@H]3CC[C@@H](N4CCc5cc(OCCC[18F])ccc5C4)CC3)c2c1             2.54
1  N#Cc1ccc2[nH]cc([C@H]3CC[C@H](N4CCc5cc(OCCC[18F])ccc5C4)CC3)c2c1             2.49

###

Experiment Notes: Protein binding in rat plasma by acetonitrile precipitation
Assay type: ADME, cell-free
Condition Notes: read-out: PB (converted)
Observable: fraction unbound
Reply: number alone, nothing else.

Problem: Find the recorded fraction unbound belonging to `N#Cc1ccc2[nH]cc([C@H]3CC[C@@H](N4CCc5cc(OCCC[18F])ccc5C4)CC3)c2c1` and report it.
Result: 0.973
